- Read-out: Fatty Acid-Binding Protein 1 (FABP1), FABP1 (gene 2168)
- PROTOCOL_DESCRIPTION: LTEA_HepaRG_FABP1: Life Technologies and Expression Analysis (LTEA) Assay for Fatty Acid-Binding Protein 1 (FABP1) using HepaRG (AID 2283494)
- CONDITION: mRNA level, 48 h; actives raise or lower the signal
Calls of active or inactive are those of the source. How the source made its calls: active means hit-call score of the fitted dose curve at least 0.9, where 1 is the maximum; inactive means score below 0.9.
The reply should name one outcome from true (1) for active, false (0) for inactive

CCCCCCCCCCCCOS(=O)(=O)O : true (1)

Now examine the next entry.
Short answer needed: outcome of this test for CCC(C)c1ccccc1O (stereo unspecified) ?
false (0)

---

- Read-out: Monokine induced gamma interferon (MIG), CXCL9 (gene 4283)
- PROTOCOL_DESCRIPTION: BSK_CASM3C_MIG: BioMAP Diversity Plus: CASM3C Assay for Monokine induced gamma interferon (MIG) Biomarker Activity (AID 2283048);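 further: MIG protein level measured by ELISA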
- CONDITION: primary human coronary artery smooth muscle cells; actives raise or lower the signal
Calls of active or inactive are those of the source. Rule for the calls: active = hit-call score of the fitted dose curve at least 0.9, where 1 is the maximum; inactive = score below 0.9.
The reply should name one outcome from YES for active, NO for inactive

C=CC(=O)OCCC(F)(F)C(F)(F)C(F)(F)C(F)(F)C(F)(F)C(F)(F)C(F)(F)C(F)(F)F : NO
Cc1cccc2c1ccc1ccccc12 : NO
CCCCC=O : NO
O=P(O)(O)CCC(F)(F)C(F)(F)C(F)(F)C(F)(F)C(F)(F)C(F)(F)F : NO
CN(C)c1ccc(C(=C2C=CC(=[N+](C)C)C=C2)c2ccccc2)cc1 : YES

Now examine the next entry.
Short answer needed: outcome of this test for `O=C1c2ccc(O)c(O)c2C(=O)c2c(O)ccc(O)c21` ?
NO

---

- Read-out: Matrix Metallopeptidase 1 (MMP1), MMP1 (gene 4312)
- PROTOCOL_DESCRIPTION: BSK_BE3C_MMP1: BioMAP Diversity Plus: BE3C Assay for Matrix Metallopeptidase 1 (MMP1) Biomarker Activity (AID 2283024)
- CONDITION: primary human bronchial epithelial cells; actives raise or lower the signal
The source made the active and inactive calls. Rule for the calls: active = hit-call score of the fitted dose curve at least 0.9, where 1 is the maximum; inactive = score below 0.9.
TEST_READOUT: AC50

OCC(F)(F)C(F)(F)C(F)(F)C(F)(F)C(F)(F)C(F)(F)C(F)(F)C(F)(F)C(F)(F)C(F)(F)C(F)(F)F : inactive
CCCCCCCCCCCCCCC : inactive
CCC(C)c1ccccc1O (stereo not drawn) : inactive
C=COC(=O)C(C)(C)CCCCCC : 3970 nM (active)
Oc1c(Cl)cc(Cl)cc1Sc1cc(Cl)cc(Cl)c1O : inactive

Your task in this section: give AC50 for each listed record.
1. O=C(NO)c1ccccc1
2. O=C(NCc1ncc(C(F)(F)F)cc1Cl)c1c(Cl)cccc1Cl
3. CCCCC=O
4. Oc1cc2ccccc2cc1O

["inactive", "inactive", "inactive", "inactive"]

Your task in this section: give AC50 for each listed record.
1. O=C1NS(=O)(=O)c2ccccc21
2. O=C(CCCN1CCC(O)(c2ccc(Cl)cc2)CC1)c1ccc(F)cc1
3. C=CC(=C)CC/C=C(\C)CCC=C(C)C
4. Cc1[nH]nc2c1N=C(c1ccccc1Cl)c1cc([N+](=O)[O-])ccc1N2

1: inactive; 2: inactive; 3: 6.95 nM (active); 4: inactive

---

- PROTOCOL_DESCRIPTION: Tanguay_ZF_120hpf_SNOU_legacy: (Legacy) Oregon State University Tanguay Lab 120 Hour Post-fertilization zebrafish Assay for Snout Malformation (AID 2283637)
Records with an inconclusive call do not appear. The source made the active and inactive calls. How the source made its calls: active means hit-call score of the fitted dose curve at least 0.9, where 1 is the maximum; inconclusive means response in the unintended direction; inactive means score below 0.9.
TEST_READOUT: AC50

As a guide, the following entries are already answered.
O=C(CCCN1CCC(O)(c2ccc(Cl)cc2)CC1)c1ccc(F)cc1 : 2.46 µM (active)
CS(=O)(=O)c1ccc([C@@H](CC2CCCC2)C(=O)Nc2cnccn2)cc1Cl : inactive
OCC(CO)(CBr)CBr : inactive
Cc1[nH]nc2c1N=C(c1ccccc1Cl)c1cc([N+](=O)[O-])ccc1N2 : inactive

Your task in this section: give AC50 for each listed record.
1. O=C1NS(=O)(=O)c2ccccc21
2. CCCCC(CC)C(=O)O (configuration not stated)

1. inactive
2. inactive

Your task in this section: give AC50 for each listed record.
1. O=C(c1ccccc1)c1ccccc1
2. CCC(C)c1ccccc1O (configuration not stated)
3. CC(=O)Nc1ccc(O)cc1
4. CCCCc1oc2ccccc2c1C(=O)c1cc(I)c(OCCN(CC)CC)c(I)c1

inactive
inactive
inactive
inactive

Your task in this section: give AC50 for each listed record.
1. N=C(N)c1ccc(OCCCCCOc2ccc(C(=N)N)cc2)cc1
2. CCCCC=O

1. inactive
2. 44.9 µM (active)
